- assaySystem: T1, human corticotrophin releasing hormone receptor type 2 (CRHR2) (human, UniProt Q13324 1-411)
- T1 sequence (looked up): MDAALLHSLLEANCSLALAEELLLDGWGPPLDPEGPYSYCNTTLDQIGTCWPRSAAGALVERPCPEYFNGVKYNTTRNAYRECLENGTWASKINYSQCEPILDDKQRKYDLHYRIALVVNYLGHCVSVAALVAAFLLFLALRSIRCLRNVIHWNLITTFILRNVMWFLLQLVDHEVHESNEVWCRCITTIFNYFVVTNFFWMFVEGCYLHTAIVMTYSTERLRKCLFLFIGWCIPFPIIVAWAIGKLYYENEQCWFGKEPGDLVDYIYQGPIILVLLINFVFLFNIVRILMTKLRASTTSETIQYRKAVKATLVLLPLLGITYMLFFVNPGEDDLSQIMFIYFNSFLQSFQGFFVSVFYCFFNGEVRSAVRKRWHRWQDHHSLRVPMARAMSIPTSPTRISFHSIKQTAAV
- assayNotes: cell-based or functional assay
Where no end group is shown, it is not given here.
Listing of entries alongside the reported pA50.

Solved entries:
TKFTLSLDVPTNIMNLLFNIAKACNLRAQAAANAHLMAQI (NES-PEG (about 20 kDa) on Cys 24; C-terminal amide (-NH2)) [Pegylated Cys-variant stresscopin-like peptide with NES linker and PEG about 20 kDa SEQ ID NO: 78]	~7.89 -log10(M)
TKFTLSLDVPTNIMNLLFNIAKAKNLRAQAAANAHCMAQI (NES-PEG (about 20 kDa) on Cys 36; C-terminal amide (-NH2)) [Pegylated Cys-variant stresscopin-like peptide with NES linker and PEG about 20 kDa SEQ ID NO: 90]	~7.49 -log10(M)
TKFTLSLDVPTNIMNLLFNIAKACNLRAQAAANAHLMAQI-NH2 [Cys-variant stresscopin-like peptide SEQ ID NO: 25]	9.17 -log10(M)
TKFTLSLDVPTNIMNCLFNIAKAKNLRAQAAANAHLMAQI-NH2 [Cys-variant stresscopin-like peptide SEQ ID NO: 17]	9.5 -log10(M)
TKFTLSLDVPTNIMNLCFNIAKAKNLRAQAAANAHLMAQI (NES-PEG (about 20 kDa) on Cys 17; C-terminal amide (-NH2)) [Pegylated Cys-variant stresscopin-like peptide with NES linker and PEG about 20 kDa SEQ ID NO: 71]	~7.35 -log10(M)

Turning to the following binder.
Ask | For TKFTLSLCVPTNIMNLLFNIAKAKNLRAQAAANAHLMAQI (NES-PEG (about 20 kDa) on Cys 8; C-terminal amide (-NH2)) [Pegylated Cys-variant stresscopin-like peptide with NES linker and PEG about 20 kDa SEQ ID NO: 62] , what is its reported pA50?
Reply | ~6.06 -log10(M)

Entry source: patent US20110105397A1
